These entries and their values trace back to ChEMBL document CHEMBL6177960.

Consider the following compounds and their measured half-life at 2 h, 2 µM readings.
Run Description: in vitro
Conditions: human, hepatocytes
Respond numerically; units are h and should not be typed.

C[C@H]1CCCN(Cc2cc3c(c(C(F)(F)F)c2)CN(c2cccc([C@]4(c5nncn5C)C[C@@H](C)C4)c2)C3=O)C1 = 0.767

Now look at this entry.
Entry C[C@H]1CCCN(Cc2cc3c(C(F)(F)F)cn(-c4cccc([C@]5(c6nncn6C)C[C@@H](C)C5)c4)c(=O)c3[nH]2)C1 needs its half-life at 2 h, 2 µM filled in; supply it.
1.36

* * *

Run Description: in vivo
Conditions: male, CD-1(ICR), mouse, iv, 1 mg/kg
Description: AUClast in male CD-1(ICR) mouse at 1 mg/kg, iv measured after 1440 mins by LC-MS/MS analysis
// reported AUC(0-t) at 24 h for each item listed

Specify reported AUC(0-t) at 24 h for the compound shown: C[C@H]1CCCN(Cc2cc3c(C4CC4)cn(-c4cccc([C@]5(c6nncn6C)C[C@@H](C)C5)c4)c(=O)c3[nH]2)C1
202 ng·h/mL

For C[C@H]1CCCN(Cc2cc3c(c(C(F)(F)F)c2)CN(c2cccc([C@]4(c5nncn5C)C[C@@H](C)C4)c2)C3=O)C1 , write its AUC(0-t) at 24 h.
277 ng·h/mL

Using known records, supply AUC(0-t) at 24 h for C[C@H]1CCCN(Cc2cc3c(C(F)(F)F)cn(-c4cccc([C@]5(c6nncn6C)C[C@@H](C)C5)c4)c(=O)c3[nH]2)C1
289 ng·h/mL

* * *

Target Or Test System: UniProt Q13191
Sequence (Q13191 whole entry): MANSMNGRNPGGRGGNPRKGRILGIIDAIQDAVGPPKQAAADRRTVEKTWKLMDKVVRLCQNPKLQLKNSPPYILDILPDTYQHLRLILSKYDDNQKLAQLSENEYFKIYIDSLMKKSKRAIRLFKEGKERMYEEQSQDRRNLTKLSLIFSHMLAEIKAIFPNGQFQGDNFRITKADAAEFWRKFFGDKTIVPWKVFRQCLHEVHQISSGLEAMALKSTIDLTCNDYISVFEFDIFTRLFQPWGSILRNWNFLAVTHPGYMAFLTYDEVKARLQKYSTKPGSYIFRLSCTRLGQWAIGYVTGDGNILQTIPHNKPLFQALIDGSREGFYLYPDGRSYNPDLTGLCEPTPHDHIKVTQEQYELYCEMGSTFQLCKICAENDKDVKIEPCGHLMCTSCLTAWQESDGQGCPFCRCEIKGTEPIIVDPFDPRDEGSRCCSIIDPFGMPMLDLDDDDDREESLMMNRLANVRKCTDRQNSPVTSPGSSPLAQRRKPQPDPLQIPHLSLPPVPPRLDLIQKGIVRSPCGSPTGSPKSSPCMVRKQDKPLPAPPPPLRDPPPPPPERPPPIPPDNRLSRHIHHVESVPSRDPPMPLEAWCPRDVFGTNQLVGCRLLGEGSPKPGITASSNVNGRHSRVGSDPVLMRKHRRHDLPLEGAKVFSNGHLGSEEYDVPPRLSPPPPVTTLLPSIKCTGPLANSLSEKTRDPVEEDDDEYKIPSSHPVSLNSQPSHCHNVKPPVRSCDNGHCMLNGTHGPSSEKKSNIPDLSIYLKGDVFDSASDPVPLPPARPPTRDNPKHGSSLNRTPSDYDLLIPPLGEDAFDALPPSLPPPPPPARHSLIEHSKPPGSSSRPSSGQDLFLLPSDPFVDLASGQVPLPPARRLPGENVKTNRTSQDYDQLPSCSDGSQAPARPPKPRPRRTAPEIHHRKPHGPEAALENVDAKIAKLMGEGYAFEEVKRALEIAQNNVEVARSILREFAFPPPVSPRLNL
Quick rule for you: Ki under 2 nM gets MET, anything else gets NOT MET.

CO[C@H]1C[C@](c2cccc(-n3cc(C(F)(F)F)c4cc(CN5CCCC6(CC6)C5)[nH]c4c3=O)c2)(c2nncn2C)C1 = NOT MET
CCN(Cc1cc2c(C(F)(F)F)cn(-c3cccc([C@]4(c5nncn5C)C[C@@H](OC)C4)c3)c(=O)c2[nH]1)CC(C)C = NOT MET
C[C@H]1CCCN(Cc2cc3c(C(F)(F)F)cn(-c4cccc(C5(c6nncn6C)COC5)c4)c(=O)c3[nH]2)C1 = NOT MET
CO[C@H]1C[C@](c2cccc(-n3cc(C(F)(F)F)c4cc(CN5CC6CC6C5)[nH]c4c3=O)c2)(c2nncn2C)C1 (stereo not given in full) = NOT MET
Cn1cnnc1[C@]1(c2cccc(-n3cc(C(F)(F)F)c4cc(CN5CCCC6(CC6)C5)[nH]c4c3=O)c2)C[C@H](C)C1 = MET

Does the reported Ki of the following molecule sit strictly below 2 nM? C[C@H]1CCCN(Cc2cc3c(C4CC4)cn(-c4cccc(C5(c6nncn6C)CC6(CC6)C5)c4)c(=O)c3[nH]2)C1
MET

API: query returns whether the molecule falls strictly under 2 nM in Ki. Query: Cn1cnnc1[C@]1(c2cccc(-n3cc(C(F)(F)F)c4cc(CNC5(C)CCC5)[nH]c4c3=O)c2)C[C@H](C)C1
MET

Field: below-cutoff. Rule: recorded Ki strictly less than 2 nM. Subject: Cn1cnnc1[C@]1(c2cccc(-n3cc(C(F)(F)F)c4cc(CN5CC6CCC(C6)C5)[nH]c4c3=O)c2)C[C@H](C)C1
MET

# TODO verify Ki < 2 nM strictly for this molecule: CO[C@H]1C[C@@](c2cccc(-n3cc(C(F)(F)F)c4cc(CN5CC6CC6C5)[nH]c4c3=O)c2)(c2nncn2C)C1 (stereo not given in full)
NOT MET
